- tested-system: T1, human IL-33 (R&D Systems, #3625-IL-010/CF) (human, UniProt O95760 112-270)
- T1 construct: Commercial recombinant protein; also called hIL-33; interleukin-33
- T1 sequence (looked up): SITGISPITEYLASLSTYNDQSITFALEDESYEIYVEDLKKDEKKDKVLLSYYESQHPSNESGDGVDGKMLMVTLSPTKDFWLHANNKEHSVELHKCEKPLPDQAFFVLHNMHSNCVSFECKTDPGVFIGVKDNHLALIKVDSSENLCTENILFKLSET
- measurement-protocol: BLI; hIL-33 pre-mixed with mAb-2 Isotype control 1
// reported mAb-1 Binding to the Pre-complex of mAb-2 & hIL-33 for each item listed
endpoint-name: mAb-1 Binding to the Pre-complex of mAb-2 & hIL-33 (nm)

>>> reported_result("H4H9640P (antibody, human IgG4, V domains shown, Human IgG4 Fc (H4H)) VH: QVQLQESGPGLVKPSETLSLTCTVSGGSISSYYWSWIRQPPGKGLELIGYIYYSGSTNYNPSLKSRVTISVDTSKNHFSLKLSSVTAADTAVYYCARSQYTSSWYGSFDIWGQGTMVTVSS VL: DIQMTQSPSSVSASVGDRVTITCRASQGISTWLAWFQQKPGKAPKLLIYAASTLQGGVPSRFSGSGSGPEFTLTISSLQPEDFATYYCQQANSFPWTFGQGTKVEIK")
0.18
>>> reported_result("H4H9659P (antibody, human IgG4, V domains shown, Human IgG4 Fc (H4H)) VH: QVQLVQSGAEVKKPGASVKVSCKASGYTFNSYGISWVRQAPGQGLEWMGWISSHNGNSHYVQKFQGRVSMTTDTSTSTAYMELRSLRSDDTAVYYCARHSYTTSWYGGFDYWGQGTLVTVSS VL: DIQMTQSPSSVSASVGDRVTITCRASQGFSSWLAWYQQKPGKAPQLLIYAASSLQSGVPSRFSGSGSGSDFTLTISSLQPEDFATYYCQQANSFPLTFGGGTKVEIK")
0.17
